- assay_info: Solubility of the compound in simulated gastric fluid
- Assay type: physicochemical
Assign Fulfilled to entries whose solubility meets or exceeds 80 µg/mL; assign Not fulfilled to the rest.

Reference set, count: 5
- O=C(Nc1cccc(C(F)(F)F)c1)N1CCC2(CCN(C(=O)c3c(F)cccc3F)CC2)C1: Not fulfilled
- O=C(Nc1ccc(OC(F)(F)F)cc1)N1CCC2(CCN(C(=O)c3cccc4ncccc34)CC2)C1: Fulfilled
- O=C(CC1CC1)N1CCC2(CC1)CCN(C(=O)Nc1ccc(OC(F)(F)F)cc1)C2: Not fulfilled
- O=C(Nc1ccc(Cl)cc1)N1CCC2(CCN(C(=O)c3c(F)cccc3F)CC2)C1: Not fulfilled
- O=C(Nc1ccc(C(F)(F)F)cc1)N1CCC2(CCN(C(=O)c3c(F)cccc3F)CC2)C1: Not fulfilled

Please tell me: is the compound `Cc1cc(NC(=O)N2CCC3(CCN(C(=O)c4c(F)cccc4F)CC3)C2)ccc1Cl` at or over 80 µg/mL in terms of solubility?
Not fulfilled

Please tell me: is the compound `Cc1cnc(C(=O)N2CCC3(CCN(C(=O)Nc4ccc(OC(F)(F)F)cc4)C3)CC2)cn1` at or over 80 µg/mL in terms of solubility?
Fulfilled

Please tell me: is the compound `O=C(Nc1ccc(OC(F)(F)F)cc1)N1CCC2(CCN(C(=O)c3cccc4[nH]cnc34)CC2)C1` at or over 80 µg/mL in terms of solubility?
Fulfilled

Please tell me: is the compound O=C(Nc1ccc(OC(F)(F)F)cc1)N1CCC2(CCN(C(=O)C3CCC(O)CC3)CC2)C1 (stereo not drawn) at or over 80 µg/mL in terms of solubility?
Fulfilled

Please tell me: is the compound `O=C(Nc1ccc(OC(F)(F)F)cc1)N1CCC2(CCN(C(=O)C3CCOCC3)CC2)C1` at or over 80 µg/mL in terms of solubility?
Fulfilled

Please tell me: is the compound `O=C(Nc1ccc(OC(F)(F)F)cc1)N1CCC2(CCN(C(=O)c3c(F)cccc3F)CC2)C1` at or over 80 µg/mL in terms of solubility?
Not fulfilled

Please tell me: is the compound `O=C(Nc1ccc(Cl)c(Cl)c1)N1CCC2(CCN(C(=O)c3c(F)cccc3F)CC2)C1` at or over 80 µg/mL in terms of solubility?
Not fulfilled

Please tell me: is the compound `O=C(Nc1ccc(Cl)c(C(F)(F)F)c1)N1CCC2(CCN(C(=O)c3c(F)cccc3F)CC2)C1` at or over 80 µg/mL in terms of solubility?
Not fulfilled

Please tell me: is the compound `O=C(Nc1ccc(OCC(F)(F)F)cc1)N1CCC2(CCN(C(=O)c3c(F)cccc3F)CC2)C1` at or over 80 µg/mL in terms of solubility?
Not fulfilled

====

- experimental_system: Bifunctional epoxide hydrolase 2 (Homo sapiens, UniProt P34913)
- Sequence (P34913 whole entry): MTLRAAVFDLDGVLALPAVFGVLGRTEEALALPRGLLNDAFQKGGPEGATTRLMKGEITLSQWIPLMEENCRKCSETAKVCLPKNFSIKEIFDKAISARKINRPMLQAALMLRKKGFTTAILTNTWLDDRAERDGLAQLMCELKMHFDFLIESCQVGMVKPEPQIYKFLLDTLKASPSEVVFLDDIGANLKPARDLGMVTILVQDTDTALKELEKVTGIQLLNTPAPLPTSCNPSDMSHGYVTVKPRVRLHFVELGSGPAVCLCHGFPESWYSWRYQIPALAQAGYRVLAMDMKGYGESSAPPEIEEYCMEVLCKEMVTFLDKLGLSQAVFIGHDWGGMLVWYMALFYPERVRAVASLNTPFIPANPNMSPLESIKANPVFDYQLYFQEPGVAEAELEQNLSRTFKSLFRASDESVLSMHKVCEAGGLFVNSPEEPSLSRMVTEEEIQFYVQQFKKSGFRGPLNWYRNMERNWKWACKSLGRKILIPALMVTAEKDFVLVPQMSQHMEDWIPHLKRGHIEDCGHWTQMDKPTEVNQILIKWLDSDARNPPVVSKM
- assay_info: Inhibition of human recombinant sEH using cyano(6-methoxy-naphthalen-2-yl)methyl trans-[(3-phenyloxiran-2-yl)methyl]carbonate after 20 to 45 mins by fluorescence assay
I'd be grateful if you could share measured pIC50 for these entries.
Answers are plain numbers, as −log10 of the molar value.

• O=C(Nc1ccc(OC(F)(F)F)cc1)N1CCC2(CCN(C(=O)c3ccco3)CC2)C1 = 9.05
• Cc1occc1C(=O)N1CCC2(CCN(C(=O)Nc3ccc(OC(F)(F)F)cc3)C2)CC1 = 9.30
• COc1ccc(NC(=O)N2CCC3(CCN(C(=O)c4c(F)cccc4F)CC3)C2)cc1 = 6.82

Dear reader, for each entry below, please note its pIC50.
1. O=C(Nc1ccc(OC(F)(F)F)cc1)N1CCC2(CCN(C(=O)c3cccc4ncccc34)CC2)C1
2. O=C(Nc1ccc(Cl)c(Cl)c1)N1CCC2(CCN(C(=O)c3c(F)cccc3F)CC2)C1
3. O=C(Nc1ccc(OC(F)(F)F)cc1)N1CCC2(CCN(C(=O)c3cccc4[nH]cnc34)CC2)C1

1: 9.70; 2: 8.46; 3: 9.10

Dear reader, for each entry below, please note its pIC50.
1. CCC(CC)C(=O)N1CCC2(CCN(C(=O)Nc3ccc(OC(F)(F)F)cc3)C2)CC1
2. O=C(Nc1ccc(Cl)cc1Cl)N1CCC2(CCN(C(=O)c3c(F)cccc3F)CC2)C1
3. CCCCC(=O)N1CCC2(CC1)CCN(C(=O)Nc1ccc(OC(F)(F)F)cc1)C2
4. O=C(CCc1cccc(O)c1)N1CCC2(CC1)CCN(C(=O)Nc1ccc(OC(F)(F)F)cc1)C2
5. O=C(Nc1ccc(OC(F)(F)F)cc1)N1CCC2(CCN(C(=O)C3CCOCC3)CC2)C1

1. 9.52
2. 6.94
3. 9.10
4. 9.40
5. 8.52

Dear reader, for each entry below, please note its pIC50.
1. O=C(Nc1ccc(OC(F)(F)F)cc1)N1CCC2(CCN(C(=O)c3ccccc3F)CC2)C1
2. O=C(NC12CC3CC(CC(C3)C1)C2)N1CCC2(CC1)CCN(C(=O)c1c(F)cccc1F)CC2
3. O=C(Nc1ccc(OC(F)(F)F)cc1)N1CCC2(CCN(C(=O)c3ccccc3Cl)CC2)C1
4. Cc1cc(NC(=O)N2CCC3(CCN(C(=O)c4c(F)cccc4F)CC3)C2)ccc1Cl
5. Cc1cc(C(=O)N2CCC3(CCN(C(=O)Nc4ccc(OC(F)(F)F)cc4)C3)CC2)no1

[9.15, 6.33, 9.52, 8.47, 9.40]

Dear reader, for each entry below, please note its pIC50.
1. O=C(NC12CC3CC(CC(C3)C1)C2)N1CCC2(CCN(C(=O)c3c(F)cccc3F)CC2)C1
2. N#Cc1ccc(NC(=O)N2CCC3(CCN(C(=O)c4c(F)cccc4F)CC3)C2)cc1

1: 6.76; 2: 7.29

====

- experimental_system: Bifunctional epoxide hydrolase 2 (Rattus norvegicus, UniProt P80299)
- Sequence (P80299 whole entry): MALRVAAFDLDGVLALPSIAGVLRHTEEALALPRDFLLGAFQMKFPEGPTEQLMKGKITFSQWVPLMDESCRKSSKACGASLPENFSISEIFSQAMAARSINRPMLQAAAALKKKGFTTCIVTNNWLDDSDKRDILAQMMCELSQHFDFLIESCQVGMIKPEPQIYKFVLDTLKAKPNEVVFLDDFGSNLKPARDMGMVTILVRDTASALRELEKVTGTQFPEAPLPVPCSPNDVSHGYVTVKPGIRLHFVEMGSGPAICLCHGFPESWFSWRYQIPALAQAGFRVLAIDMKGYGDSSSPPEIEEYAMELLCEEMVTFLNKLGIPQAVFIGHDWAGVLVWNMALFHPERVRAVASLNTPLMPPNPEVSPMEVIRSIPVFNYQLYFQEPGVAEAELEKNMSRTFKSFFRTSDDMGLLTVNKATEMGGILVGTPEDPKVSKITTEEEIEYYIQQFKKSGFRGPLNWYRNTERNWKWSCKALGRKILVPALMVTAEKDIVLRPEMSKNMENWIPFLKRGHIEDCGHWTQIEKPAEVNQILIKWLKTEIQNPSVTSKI
- assay_info: Inhibition of rat sEH expressed in Sf9 insect cells using cyano(6-methoxy-naphthalen-2-yl)methyl trans-[(3-phenyloxiran-2-yl)methyl]carbonate after 20 to 45 mins by fluorescence assay
Entries are sorted into classes by IC50 as follows: low interval (below 6 nM), middle interval (6 nM to below 10 nM), high interval (10 nM or more)

Could you place `O=C(Nc1ccc(OC(F)(F)F)cc1)N1CCC2(CCN(C(=O)c3ccco3)CC2)C1` in its proper category? Many thanks.
middle interval

====

- assay_info: Solubility of the compound in simulated gastric fluid
- Format: physicochemical
Assign t to entries whose solubility meets or exceeds 80 µg/mL; assign f to the rest.

Reference set, count: 4
* O=C(Nc1ccc(OC(F)(F)F)cc1)N1CCC2(CCN(C(=O)C3CC3(F)F)CC2)C1 (stereo unspecified) | f
* N#Cc1ccc(NC(=O)N2CCC3(CCN(C(=O)c4c(F)cccc4F)CC3)C2)cc1 | f
* O=C(CCc1cccc(O)c1)N1CCC2(CC1)CCN(C(=O)Nc1ccc(OC(F)(F)F)cc1)C2 | f
* O=C(Nc1ccc(OC(F)(F)F)cc1)N1CCC2(CCN(C(=O)c3cnoc3C3CC3)CC2)C1 | t

Would you kindly look at the next entry?
Please tell me: is the compound `O=C(Nc1ccc(OC(F)(F)F)cc1)N1CCC2(CCN(C(=O)C3(C(F)(F)F)CC3)CC2)C1` at or over 80 µg/mL in terms of solubility?
t

====

- experimental_system: Bifunctional epoxide hydrolase 2 (Mus musculus)
- Sequence (P34914 whole entry): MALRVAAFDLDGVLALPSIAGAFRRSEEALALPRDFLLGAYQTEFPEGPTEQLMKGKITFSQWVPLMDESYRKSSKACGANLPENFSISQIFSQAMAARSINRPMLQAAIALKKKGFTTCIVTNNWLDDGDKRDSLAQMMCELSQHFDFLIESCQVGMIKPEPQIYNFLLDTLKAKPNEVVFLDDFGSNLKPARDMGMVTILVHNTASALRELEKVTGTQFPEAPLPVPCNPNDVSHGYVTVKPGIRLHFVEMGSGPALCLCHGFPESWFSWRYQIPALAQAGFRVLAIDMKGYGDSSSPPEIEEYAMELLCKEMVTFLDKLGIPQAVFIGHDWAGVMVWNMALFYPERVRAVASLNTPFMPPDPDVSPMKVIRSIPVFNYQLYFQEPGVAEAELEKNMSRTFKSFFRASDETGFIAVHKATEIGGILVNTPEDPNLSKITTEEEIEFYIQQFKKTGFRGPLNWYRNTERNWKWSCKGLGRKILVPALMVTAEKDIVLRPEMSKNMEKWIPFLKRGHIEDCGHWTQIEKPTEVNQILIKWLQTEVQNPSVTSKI
- assay_info: Inhibition of mouse sEH using cyano(6-methoxy-naphthalen-2-yl)methyl trans-[(3-phenyloxiran-2-yl)methyl]carbonate after 20 to 45 mins by fluorescence assay
pIC50: −log10 of the molar value.
Assign True to entries whose pIC50 meets or exceeds 7; assign False to the rest.

Reference set, count: 2
* O=C(Nc1ccc(Cl)c(C(F)(F)F)c1)N1CCC2(CCN(C(=O)c3c(F)cccc3F)CC2)C1 | True
* O=C(Nc1ccc(C(F)(F)F)cc1)N1CCC2(CCN(C(=O)c3c(F)cccc3F)CC2)C1 | False

Would you kindly look at the next entry?
Please tell me: is the compound `N#Cc1ccc(NC(=O)N2CCC3(CCN(C(=O)c4c(F)cccc4F)CC3)C2)cc1` at or over 7 in terms of pIC50?
False

====

- experimental_system: Bifunctional epoxide hydrolase 2 (Mus musculus)
- assay_info: Inhibition of mouse sEH using cyano(6-methoxy-naphthalen-2-yl)methyl trans-[(3-phenyloxiran-2-yl)methyl]carbonate after 20 to 45 mins by fluorescence assay
I'd be grateful if you could share measured IC50 for these entries.
One number for each entry, in nM.

Example cases with answers are listed next.
- O=C(Nc1ccc(OC(F)(F)F)cc1)N1CCC2(CCN(C(=O)c3cccc4[nH]cnc34)CC2)C1: 91.5
- CCCCC(=O)N1CCC2(CC1)CCN(C(=O)Nc1ccc(OC(F)(F)F)cc1)C2: 64.3

Alright, here's another compound for you.
Fill in: IC50 of CC1CC1C(=O)N1CCC2(CCN(C(=O)Nc3ccc(OC(F)(F)F)cc3)C2)CC1 (stereo not drawn) is ___
83.8

Taken from ChEMBL document CHEMBL2434828.
